Target: T1, TNFR1 (Homo sapiens, UniProt P19438)
T1 chain: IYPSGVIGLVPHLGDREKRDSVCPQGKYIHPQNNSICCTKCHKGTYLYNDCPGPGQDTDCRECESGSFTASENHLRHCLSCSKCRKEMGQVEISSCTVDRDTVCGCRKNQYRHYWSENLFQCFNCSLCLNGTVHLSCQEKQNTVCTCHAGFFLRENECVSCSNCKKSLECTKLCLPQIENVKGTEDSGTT
Assay: yeast display SC50
ATTRIBUTE MEASURED: apparent Kd (screen) (pM)

Examples with their reported apparent Kd (screen) follow.
L96H (designed binder) MTLQELLREEALRRAEAEAFRYALELLAEKFPEQKEYLLDLAEEIESQIRSLSGVDVEDVRKFLDKEWAWVKELLAEHPAELAEVEAARAARLAEHRAEVEAKVAA ... 490
K72P (designed binder) MTLQELLREEALRRAEAEAFRYALELLAEKFPEQKEYLLDLAEEIESQIRSLSGVDVEDVRKFLDKEWAWVPELLAEHPAELAEVEAARAARLAELRAEVEAKVAA ... 11400

[1] E95F (designed binder) MTLQELLREEALRRAEAEAFRYALELLAEKFPEQKEYLLDLAEEIESQIRSLSGVDVEDVRKFLDKEWAWVKELLAEHPAELAEVEAARAARLAFLRAEVEAKVAA
[2] E10Q (designed binder) MTLQELLREQALRRAEAEAFRYALELLAEKFPEQKEYLLDLAEEIESQIRSLSGVDVEDVRKFLDKEWAWVKELLAEHPAELAEVEAARAARLAELRAEVEAKVAA
Challenge: From the recorded data, which exceeds the other in apparent Kd (screen): 1 or 2 ? Please respond with the label that marks your chosen entry.
Response given: 2
(2: 13800 pM, 1: 446 pM)

[A] R21I (designed binder) MTLQELLREEALRRAEAEAFIYALELLAEKFPEQKEYLLDLAEEIESQIRSLSGVDVEDVRKFLDKEWAWVKELLAEHPAELAEVEAARAARLAELRAEVEAKVAA
[B] H78L (designed binder) MTLQELLREEALRRAEAEAFRYALELLAEKFPEQKEYLLDLAEEIESQIRSLSGVDVEDVRKFLDKEWAWVKELLAELPAELAEVEAARAARLAELRAEVEAKVAA
Challenge: From the recorded data, which exceeds the other in apparent Kd (screen): A or B ? Please respond with the label that marks your chosen entry.
Response given: B
(B: 1860 pM, A: 490 pM)
